target: Peptide 1593 (…) (Mycobacterium tuberculosis)
test: indirect ELISA, supernatant on 1 ug/ml coated peptide
readoutKind: OD450, supernatant 1:810

binder	result
Antibody 125D9-1 (antibody, V domains shown) VH: QPVEESGGRLVTPGTPLTLTCTVSGFSLSSYDMTWVRQAPGKGLEYIGVVAYGGATYYASWAKGRFTISKTSTTVDLKITSPTTEDTATYFCARGDSDGSSELFNLWGQGTLVTVSS VL: AVLTQTPSPVSAAVGGTVTINCQSSKSVYNNNCLSWYQQKQGQPPKLLIYQASTPASGVPSRFKGSGSGTQFTLTINDVQCDDAATYYCAGCFASTSDMYGFGGGTGVVVK	3.27 OD450
Antibody 101G10-2 (antibody, V domains shown) VH: QSVEESGGRLVTPGTPLTLTCTVSGFSLSSYDMTWVRQAPGKGLEYIGVISYGGSAYYASWAKGRFTISKTSTTVDLKITSPTTEDTATYFCARGDSDGSSELFNLWGQGTLVTVSS VL: AVLTQTPSPVSAPVGGTVSINCQSSKSVYNNNCLSWYQQKPGQPPNLLIYGASTLASGVPSRFKGSGSGTQFTLTINDVQCDDAATYYCAGCFASTNDMYGFGGGSEVVVK	3.1 OD450
Antibody 67G8-2 (antibody, V domains shown) VH: QSVEESGGRLVTPGTPLTLTCTVSGFSLGNYDGHWVRQTPEKGLEWIGVIATIGDTYYASWAKGRFSISKTSATVELRITSPTTEDTATYFCVRGDSRTSNEIFNLWGQGTLVTVSS VL: AVLTQTPSPVSAAVGGTLTINCQSTRSVHNNICLSWYQQKPGQPPKLLIYSASTLASGVPSRFKGSGSGTQFTLAINDVQCGDAATYYCAGCFPSKSDMYGFGGGTEVVVK	1.31 OD450

For the next question, use this binder.
Task: Specify OD450, supernatant 1:810 for Antibody 91B4-1 (antibody, V domains shown) VH: QSLEESGGRLVSPGGSLTLTCTVSGIDLSRFGVSWVRQAPGKGLEWTGYIHTDGNVYYASWAKGRFTISKTSTTVDLKMTSLTTEDTATYFCARGGYAADLWGQAALVTVSS VL: DPMLTQTPSSVSAAVGGTVTISCQSSESVYKNYLAWYQQKLGQPPKLLIGATSTLVSGVPSRFKGSGSRTQFSLTISDLECDDAATYYCVGGYTGKNVFGGGTEVVVK and stop.
Output: 1.3 OD450
